Entry source: paper PMC10133546

# method notes: Stability of analytes in rat plasma (auto-sampler, freeze-thaw, room temperature, long-term)
# measurement context: 12.5 ng/mL, three freeze-thaw cycles
Form field: Freeze thaw cycles Accuracy (%) (one value per entry).
The reply should consist of the numeric value with the unit placed after it.

> print(dat)
                                   compound                         quantity  test.result
1  O=C(O)[C@H]1O[C@@H](Oc2cc(O)c3c(=O)cc(-c4ccc(O)cc4)oc3c2)[C@H](O)[C@@H](O)[C@@H]1O [apigenin-7-O-glucuronide]  Freeze thaw cycles Accuracy (%)        85.6%
2                      O=C(O)C=Cc1ccc(O)cc1  Freeze thaw cycles Accuracy (%)        95.2%
3  O=C(/C=C/c1ccc(O)c(O)c1)O[C@H]1[C@H](O)C[C@](O)(C(=O)O)C[C@H]1O  Freeze thaw cycles Accuracy (%)        84.5%

Answer with the recorded Freeze thaw cycles Accuracy (%) of "O=C(/C=C/c1ccc(O[C@@H]2O[C@H](CO)[C@@H](O)[C@H](O)[C@H]2O)cc1)c1ccc(O)cc1O" only. 90.9%

Give the reported Freeze thaw cycles Accuracy (%) for this compound. "O=c1cc(-c2ccc(O)cc2)oc2c([C@@H]3O[C@H](CO)[C@@H](O)[C@H](O)[C@H]3O)c(O)cc(O)c12" 92.0%

====

Listed compounds paired with reported Working solution Accuracy (%)
# method notes: Stability of the working solution (4°C for 1 month)
# Assay type: physicochemical
# measurement context: 50 ng/mL
Reply numerically in %, unit not repeated.

compound	Working solution Accuracy (%)
CC(C)=CCC[C@](C)(O)[C@H]1CC[C@]2(C)[C@@H]1[C@H](O)C[C@@H]1[C@@]3(C)CC[C@H](O)C(C)(C)[C@@H]3[C@@H](O[C@@H]3O[C@H](CO)[C@@H](O)[C@H](O)[C@H]3O[C@@H]3O[C@H](CO)[C@@H](O)[C@H](O)[C@H]3O)C[C@]12C [ginsenoside Rf]	94.9

# input for lookup
Determine from records and report Working solution Accuracy (%) for "O=C(O)[C@H]1O[C@@H](Oc2cc3oc(-c4ccc(O)cc4)cc(=O)c3c(O)c2O)[C@H](O)[C@@H](O)[C@@H]1O" 97.2

====

Each entry below lists one item and its recorded Room temperature for 24 h Accuracy (%) value.
# method notes: Stability of analytes in rat plasma (auto-sampler, freeze-thaw, room temperature, long-term)
# measurement context: 1.56 ng/mL, room temperature 24 h
Answer with a number only, understood to be in %.

compound	test result
O=C(/C=C/c1ccc(O[C@@H]2O[C@H](CO)[C@@H](O)[C@H](O)[C@H]2O)cc1)c1ccc(O)cc1O	88.9
C[C@]1(OC(=O)/C=C/c2ccccc2)C[C@@H](O)[C@]2(O)C=CO[C@@H](O[C@@H]3O[C@H](CO)[C@@H](O)[C@H](O)[C@H]3O)[C@@H]21 [harpagoside]	95.0
O=C(O)c1ccc(O)c(O)c1	110.0
O=c1c(O[C@@H]2O[C@H](CO)[C@H](O)[C@H](O)[C@H]2O)c(-c2ccc(O)c(O)c2)oc2cc(O)cc(O)c12 [hyperoside]	91.6
O=C1C[C@@H](c2ccc(O[C@@H]3O[C@H](CO)[C@@H](O)[C@H](O)[C@H]3O)cc2)Oc2cc(O)ccc21	111.0

Read off the recorded Room temperature for 24 h Accuracy (%) for "COc1c2c(cc3oc(CO)cc(=O)c13)O[C@H](C(C)(C)O)C2" 92.4

Recall and state the measured Room temperature for 24 h Accuracy (%) for O=C(O)[C@H]1O[C@@H](Oc2cc(O)c3c(=O)cc(-c4ccc(O)cc4)oc3c2)[C@H](O)[C@@H](O)[C@@H]1O [apigenin-7-O-glucuronide] . 114.0
